Each entry below carries its recorded 48 h IGC50 (-log10 mol/L).
# System: Tetrahymena pyriformis
# Assay protocol: 48 h IGC50 (-log10 mol/L); higher = more toxic
Number only, please.

Example entries begin here.
Compound	48 h IGC50 (-log10 mol/L)
CCOC(=O)CC(=O)OCC	2
O=C(CBr)Oc1ccccc1	5.08
C/C=C/C=O	4.06
O=C(O)c1ccccc1O	2.49
Nc1ccccc1Cl	2.83

Which 48 h IGC50 (-log10 mol/L) value belongs to CC(=O)c1ccco1 ?
1.96

Please report the recorded 48 h IGC50 (-log10 mol/L) for CC(Br)c1ccccc1 (stereo not drawn) .
2.33

Field request: 48 h IGC50 (-log10 mol/L) | item: NC(=O)c1ccc(Cl)cc1Cl
2.64

For the compound CC1CCC(=O)O1 (stereo not drawn) , what 48 h IGC50 (-log10 mol/L) is on record?
1.43

// query 48 h IGC50 (-log10 mol/L) value for entry Nc1cc([N+](=O)[O-])ccc1Cl
3.6

Looking for the measured 48 h IGC50 (-log10 mol/L) of OCCC(c1ccccc1)c1ccccc1 , can you help?
4.04

Please give the measured 48 h IGC50 (-log10 mol/L) for this compound: CCCCCCCO
3.1

Using the record for NC(=O)Oc1ccccc1 , report its 48 h IGC50 (-log10 mol/L).
2.61

Reported 48 h IGC50 (-log10 mol/L), compound COc1ccc(C=O)c(Cl)c1O : ____
3.2

Returns the measured 48 h IGC50 (-log10 mol/L) for the input compound. Input: C/C=C/CCCO
2.25

Dear colleague, I am looking for the recorded 48 h IGC50 (-log10 mol/L) of the following compound: O=Cc1cc2ccccc2c2ccccc12
4.71

Sample CCCOc1ccc(O)cc1 — what was its 48 h IGC50 (-log10 mol/L)?
3.52

Recorded 48 h IGC50 (-log10 mol/L) for CCC(N)=O , please?
0.91

Entry under review: Cc1cc(Br)cc(C)c1O . Reported 48 h IGC50 (-log10 mol/L)?
4.16

Item under review: Oc1cc(Cl)c(Cl)cc1Cl . Reported 48 h IGC50 (-log10 mol/L)?
5.1

Looking for the measured 48 h IGC50 (-log10 mol/L) of N#Cc1cccc(Cl)c1 , can you help?
2.94

Can you look up the measured 48 h IGC50 (-log10 mol/L) of N#Cc1ccccn1 for me?
2.17

* * *

# Tested on: Daphnia magna
# Assay protocol: 48 h LC50 (-log10 mol/L); higher = more toxic
The label depends only on 48 h LC50 (-log10 mol/L): 1 if it is at least 6, -1 if it is smaller.

Check out these entries, answers already filled in.
Molecule	Tested target	Discrete label
CCCCNC(=O)OCC#CI	Daphnia magna	1
c1ccc2sc(SSc3nc4ccccc4s3)nc2c1	Daphnia magna	-1
CC(F)(Cl)Cl	Daphnia magna	-1
CCOP(=O)(OCC)Oc1ccc([N+](=O)[O-])cc1	Daphnia magna	1
ClCCl	Daphnia magna	-1
O=S1(=O)OCC2C(CO1)C1(Cl)C(Cl)=C(Cl)C2(Cl)C1(Cl)Cl (stereo not drawn)	Daphnia magna	-1
Clc1cc(Cl)c(-c2cc(Cl)c(Cl)cc2Cl)cc1Cl	Daphnia magna	1
CC(C)NCC(O)COc1ccc(CC(N)=O)cc1 (stereo not drawn)	Daphnia magna	-1

Record CCC(C)c1ccccc1OC(=O)NC (stereo not drawn) ; criterion: 48 h LC50 (-log10 mol/L) no lower than 6. Met?
1

Could you tell me if the measured 48 h LC50 (-log10 mol/L) of CC(C)OC(=O)Nc1cccc(Cl)c1 reaches 6 or more?
-1

Evaluate CCOc1cc(NC(C)=O)ccc1C(=O)OC : 48 h LC50 (-log10 mol/L) at minimum 6?
-1

* * *

# Test system: Daphnia magna
# Assay protocol: 48 h LC50 (-log10 mol/L); higher = more toxic
Entries and their measured 48 h LC50 (-log10 mol/L) follow.
Give only the figure.

Solved entries (count: 3):
Molecule	Experimental result
O=[N+]([O-])c1ccccc1	3.62
CC(Cl)(Cl)Cl	3.72
Cc1nc2n(c(=O)c1CCN1CCC(c3noc4cc(F)ccc34)CC1)CCCC2	4.83

If you can, please state the reported 48 h LC50 (-log10 mol/L) value of ClCC(Cl)CCl .
3.65

* * *

# Test system: Daphnia magna
# Assay protocol: 48 h LC50 (-log10 mol/L); higher = more toxic
Item-by-item account of 48 h LC50 (-log10 mol/L)

Record excerpt, results attached:
Molecule	48 h LC50 (-log10 mol/L)
CC=O	0.55
N#Cc1c(Cl)c(Cl)c(Cl)c(C#N)c1Cl	6.21
CN(C)c1ccccc1	4.38

Name the recorded 48 h LC50 (-log10 mol/L) for CBr .
4.63

Which 48 h LC50 (-log10 mol/L) value belongs to Nc1cc(Cl)c(Cl)c(Cl)c1Cl ?
5.56

Which 48 h LC50 (-log10 mol/L) is reported for this molecule? Cc1cc(C)cc(C)c1
4.3

Value lookup for 48 h LC50 (-log10 mol/L); key = NC(=O)N1c2ccccc2C=Cc2ccccc21
4.23

Could you tell me which 48 h LC50 (-log10 mol/L) is on file for FC(F)C(F)(F)OCC(Cn1cncn1)c1ccc(Cl)cc1Cl (stereo not drawn) ?
4.71

* * *

# Tested on: Pimephales promelas
# Assay protocol: 96 h LC50 (-log10 mol/L); higher = more toxic
Would you please tag the item y when its 96 h LC50 (-log10 mol/L) is 4 or above, and n when it is below?

Example results:
Molecule	Tested target	Discrete label
C#CC(O)CCCCC (stereo unspecified)	Pimephales promelas	y
N#CCCl	Pimephales promelas	y
N#Cc1cccc(C(F)(F)F)c1	Pimephales promelas	n
Nc1ccc(-c2ccc(N)c(Cl)c2)cc1Cl	Pimephales promelas	y
ClCCCCCl	Pimephales promelas	n
O=Cc1c(F)c(F)c(F)c(F)c1F	Pimephales promelas	y
OCCOc1ccccc1	Pimephales promelas	n
CCOc1ccc(N)c([N+](=O)[O-])c1	Pimephales promelas	n

Form field: 96 h LC50 (-log10 mol/L) at least 4? Entry: C1CCOC1
n

Could you verify whether the entry c1ccc(Oc2ccccc2)cc1 shows 96 h LC50 (-log10 mol/L) of no less than 4?
y

Check if 96 h LC50 (-log10 mol/L) >= 4 (inclusive). Item: CCCCCc1ccccc1
y

// inclusive: 96 h LC50 (-log10 mol/L) at least 4? input: ClCc1ccc(CCl)cc1
y

Hello, I need to know if O=C(O)CCCCC(=O)O has measured 96 h LC50 (-log10 mol/L) not below 4. Thanks!
n

* * *

Each entry below lists one item and its recorded 48 h LC50 (-log10 mol/L) value.
# Test system: Daphnia magna
# Assay protocol: 48 h LC50 (-log10 mol/L); higher = more toxic

Below, each entry is followed by its recorded 48 h LC50 (-log10 mol/L) result.
Molecule	48 h LC50 (-log10 mol/L)
O=[N+]([O-])c1ccc(Cl)cc1	4.31
c1ccc2c(c1)[nH]c1ccccc12	4.7
CCCCOC(=O)c1ccccc1C(=O)OCc1ccccc1	5.19
c1ccc2c(c1)oc1ccccc12	5
NC(N)=S	3.88
CC(=O)Oc1c(C)cc(OCC(O)CNC(C)C)c(C)c1C (stereo not drawn)	3.92
c1ccc2[nH]ccc2c1	5.07
Clc1ccc(Cl)c(-c2cc(Cl)c(Cl)cc2Cl)c1	7.51

So what's the measured 48 h LC50 (-log10 mol/L) for this one? c1ccc(Oc2ccccc2)cc1
5.43

Return reported 48 h LC50 (-log10 mol/L); argument: O=c1[nH]cc(F)c(=O)[nH]1
3.72

* * *

# Test system: Tetrahymena pyriformis
# Assay protocol: 48 h IGC50 (-log10 mol/L); higher = more toxic
Experimental endpoint: 48 h IGC50 (-log10 mol/L)
Format: numeric value only, no unit, no commentary.

Compound	48 h IGC50 (-log10 mol/L)
O=C(CO)c1ccccc1	3.08
Nc1cccc(OCc2ccccc2)c1	3.88
c1ccc2c(c1)ccc1cccnc12	4.31

Please look up its 48 h IGC50 (-log10 mol/L): Cc1cccc(CO)c1
2.76

* * *

# System: Pimephales promelas
# Assay protocol: 96 h LC50 (-log10 mol/L); higher = more toxic
# 96 h LC50 (-log10 mol/L) per record follows
Quick one: just the number, no unit, thanks!

Look over these answered cases.
Compound structure string	Experimental endpoint	Experimental result
Cc1cccc(O)c1[N+](=O)[O-]	96 h LC50 (-log10 mol/L)	3.52
CC(O)(c1ccc(Cl)cc1)c1ccc(Cl)cc1	96 h LC50 (-log10 mol/L)	5.25

Query 96 h LC50 (-log10 mol/L) on Pimephales promelas for c1cc(CCc2ccncc2)ccn1
3.09

For the record C=CCc1ccccc1O , what value of 96 h LC50 (-log10 mol/L) is listed for Pimephales promelas?
3.98

Look up 96 h LC50 (-log10 mol/L) with Pimephales promelas for this compound: CCNCC
1.93

Which measured 96 h LC50 (-log10 mol/L) belongs to N#CC(Br)Br , tested on Pimephales promelas?
5.56

Pimephales promelas / 96 h LC50 (-log10 mol/L) / Brc1ccccc1Br : value?
4.76

Fill in the recorded 96 h LC50 (-log10 mol/L) for this compound, with Pimephales promelas as test system: CC(C)(O)C(F)(F)C(F)F
2.44
